B1: tRNA (parent)
chain: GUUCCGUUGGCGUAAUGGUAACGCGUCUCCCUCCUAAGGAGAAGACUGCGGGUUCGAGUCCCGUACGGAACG

Variants of: B1
assay-comment: yeast fitness relative to wild type (ratio to wild type); higher = fitter; tRNA-Arg(CCU), competitive growth, 37 C, YPD
Variants at the floor of the assay were thinned out.
measured-attribute: yeast fitness

For the variant G23A C30U C33A A43G G48C A57G , what yeast fitness is on record? ≤ 0.5

Record request: yeast fitness value, item A14G C27G U54C ≤ 0.5

Record request: yeast fitness value, item A21U G50C C61G A70U ≤ 0.5

Give its yeast fitness value. Item: C4A A20U U28A C31U C55G A57C ≤ 0.5

# yeast fitness lookup, item A14G U16G G18C U59A A65U ≤ 0.5

Need yeast fitness of U64C A70C , thanks. 0.967

yeast fitness lookup needed for G39A C49U , thanks. 0.842

Record request: yeast fitness value, item C11A A69U 0.734

Please look up its yeast fitness: U32C C61G A69C ≤ 0.5
